System: RSK2(Kin.Dom.1-N-terminal);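 further: KINOMEscan kinase panel screen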
Construct: gene RPS6KA3
Conditions: concentration: 1 μM, replicates: in singlicate; n = 1
Value Type: %Inh (%)
Give bare numbers, in %.

Answered cases to consult:
{"columns": ["Molecule", "Measured Target", "Display Unit", "%Inh"],
 "data": [
  ["Nc1nccc2scc(-c3ccc4c(c3)CCN4C(=O)Cc3cc(F)ccc3F)c12", "RSK2(Kin.Dom.1-N-terminal)", "%", 3],
  ["CN1c2ccc(-c3ccc(C(=O)NCCO)cc3)cc2-c2[nH]ncc2S1(=O)=O", "RSK2(Kin.Dom.1-N-terminal)", "%", 12],
  ["FC(F)(F)c1ccc(-c2nn3ncccc3c2-c2ccnc(Nc3cccc(C(F)(F)F)c3)n2)cc1", "RSK2(Kin.Dom.1-N-terminal)", "%", 0],
  ["COc1ccc(Nc2nccc(N3CCC(NC(=O)c4cccc(NC(C)=O)c4)C3)n2)cc1 (centres unmarked)", "RSK2(Kin.Dom.1-N-terminal)", "%", 0]
]}

Now look at this one.
Record request: %Inh value, item Cc1ccc(O)cc1Nc1cc(C(F)(F)F)nc2ccc(-c3ccncc3)cc12
0
